Molecular target: human TRPV4 (Homo sapiens (Human))
Assay: FLIPR assay for hTRPV4 expressed in BHK cells
Assay type: cell-based
Conditions: inhibition of Agonist Compound (EC80)-induced calcium signal; BHK/AC9 cells expressing human TRPV4; read-out: IC50
Counter-ions that a name gives are not always drawn.
parameter: IC50

INSERT INTO results (molecule, test_result) VALUES
  ('N#Cc1ccc(S(=O)(=O)N2C[C@H](S(=O)(=O)c3ccc(Cl)cc3)[C@](O)(CO)C2)c(OC2CC2)c1', '10 to 100 nM'),
  ('N#Cc1ccc(S(=O)(=O)N2C[C@H](S(=O)(=O)c3ccc(C(F)(F)F)nc3)[C@](O)(CO)C2)c(Br)c1', '10 to 100 nM'),
  ('N#Cc1cc(C(F)(F)F)ccc1S(=O)(=O)N1C[C@H](S(=O)(=O)c2ccc(F)c(F)c2)[C@](O)(CO)C1', '10 to 100 nM'),
  ('N#Cc1ccc(S(=O)(=O)N2C[C@H](S(=O)(=O)c3ccc(Cl)cn3)[C@@]3(CNCCO3)C2)c(Cl)c1 [Example 129, Hydrochloride]', '10 to 100 nM'),
  ('N#Cc1ccc(S(=O)(=O)[C@H]2CN(S(=O)(=O)c3ccc(C(F)(F)F)cc3Cl)C[C@@]2(O)CO)cc1', '10 to 100 nM'),
  ('N#Cc1ccc(S(=O)(=O)N2C[C@H](S(=O)(=O)c3ccc(Cl)cn3)[C@](O)(CO)C2)c(Cl)c1', '0.1 to 10 nM'),
  ('O=S(=O)(c1ccc(C(F)(F)F)nc1)[C@H]1CN(S(=O)(=O)c2ccc(Cl)cc2Cl)C[C@@]1(O)CO', '10 to 100 nM');

* * *

Target: human TRPV4 (Homo sapiens (Human), UniProt Q9HBA0)
Sequence (Q9HBA0 whole entry): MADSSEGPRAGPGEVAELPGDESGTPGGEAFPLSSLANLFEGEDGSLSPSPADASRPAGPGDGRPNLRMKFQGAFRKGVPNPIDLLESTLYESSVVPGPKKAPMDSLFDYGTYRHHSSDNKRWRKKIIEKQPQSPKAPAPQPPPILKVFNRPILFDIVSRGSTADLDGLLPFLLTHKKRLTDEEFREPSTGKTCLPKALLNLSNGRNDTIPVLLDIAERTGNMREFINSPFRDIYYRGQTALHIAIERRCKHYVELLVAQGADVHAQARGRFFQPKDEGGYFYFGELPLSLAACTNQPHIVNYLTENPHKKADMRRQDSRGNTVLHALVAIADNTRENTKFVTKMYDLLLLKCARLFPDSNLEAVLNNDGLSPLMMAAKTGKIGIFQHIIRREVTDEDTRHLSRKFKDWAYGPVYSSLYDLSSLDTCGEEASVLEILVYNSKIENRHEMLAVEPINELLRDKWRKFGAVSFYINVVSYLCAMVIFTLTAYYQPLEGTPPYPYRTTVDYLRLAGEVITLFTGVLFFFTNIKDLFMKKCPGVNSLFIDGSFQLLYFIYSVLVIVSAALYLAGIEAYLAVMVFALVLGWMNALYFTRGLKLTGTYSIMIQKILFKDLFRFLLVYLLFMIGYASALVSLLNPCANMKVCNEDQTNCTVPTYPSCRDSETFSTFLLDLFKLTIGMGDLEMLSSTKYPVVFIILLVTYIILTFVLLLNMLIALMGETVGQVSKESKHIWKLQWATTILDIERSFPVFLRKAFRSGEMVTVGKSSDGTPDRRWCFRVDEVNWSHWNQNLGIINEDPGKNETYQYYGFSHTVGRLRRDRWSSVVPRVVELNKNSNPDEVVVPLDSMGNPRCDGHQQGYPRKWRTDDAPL
Assay: FLIPR assay for hTRPV4 expressed in BHK cells
Assay type: cell-based
Settings: inhibition of Agonist Compound (EC80)-induced calcium signal; BHK/AC9 cells expressing human TRPV4; read-out: IC50
parameter: IC50

INSERT INTO results (mol_smiles, test_result) VALUES
  ('N#Cc1ccc(S(=O)(=O)[C@H]2CN(S(=O)(=O)c3ccc(C(F)(F)F)cc3Cl)C[C@]2(O)CO)cc1Cl', '10 to 100 nM'),
  ('N#Cc1ccc(S(=O)(=O)[C@H]2CN(S(=O)(=O)c3cc(F)c(Cl)cc3Cl)C[C@@]2(O)CO)cc1F', '0.1 to 10 nM'),
  ('N#Cc1ccc(S(=O)(=O)N2C[C@H](S(=O)(=O)c3nccs3)[C@](O)(CO)C2)c(Cl)c1', '10 to 100 nM');
